Reference source for all entries: patent US20250368734A1

- systemName: T1, cynomolgus monkey GPRC5D (cynomolgus monkey)
- T1 construct: whole, on cells; HEK293T-cynoGPRC5D cells; also called cynoGPRC5D
- methodNotes: FACS, HEK293T-cynoGPRC5D cells; note: test concentration or dose not given here
valueType: % Positive (%)
Give the value in % but do not write % after it.

Consider the following illustrative entries.
binder="15D6G2 (antibody, V domains shown, Mouse monoclonal antibody from hybridoma subclone) VH: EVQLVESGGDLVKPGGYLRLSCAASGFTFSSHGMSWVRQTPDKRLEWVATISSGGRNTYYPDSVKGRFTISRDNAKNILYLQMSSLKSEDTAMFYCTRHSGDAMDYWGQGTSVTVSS VL: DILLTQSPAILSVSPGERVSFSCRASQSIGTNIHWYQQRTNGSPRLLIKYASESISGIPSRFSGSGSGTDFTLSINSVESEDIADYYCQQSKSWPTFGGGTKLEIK" displayunit=% val=99.7
binder="ATG596 (antibody, V domains shown, Human IgG1; also called benchmark antibody ATG596; positive human IgG1 control antibody) VH: QVQLVQSGAEVKKPGASVKVSCKASGYSFTGYTMNWVRQAPGQGLEWMGLINPYNSDTNYAQKLQGRVTMTTDTSTSTAYMELRSLRSDDTAVYYCARVALRVALDYWGQGTLVTVSS VL: DIQMTQSPSSLSASVGDRVTITCKASQNVATHVGWYQQKPGKAPKRLIYSASYRYSGVPSRFSGSGSGTEFTLTISNLQPEDFATYYCQQYNRYPYTFGQGTKLEIK" displayunit=% val=98.5

Below: the item to evaluate.
% Positive lookup needed for 12G12C2 (antibody, V domains shown, Mouse monoclonal antibody from hybridoma subclone) VH: QIQLVQSGPELKMPGETVKISCKASGYTFTTYGLSWVKQAPGKGLKWMGWINTFSGVPIYADDFKGRFAFSLETSASTAYLQINNLKNEDTATYFCARWGIRQRGDYWGQGATLTVSS VL: QIVLTQSPAIMSASPGEKVTMTCSASSSVSYLHWYQQKSGTSPKRWIYDTSKLASGVPVRFSGSGSETSYSLTISSMEAEDAATYYCQQWTSNPPTFGGGTKLEIK , thanks. 96.2
